biological target: SARS-CoV-2 Main Protease (SARS-CoV-2) (UniProt P0DTD1); conditions: 50.0 µM
Consider the following molecules and their measured inhibition readings.
Number plus unit, in that order.

Cc1cccc(C)c1OCC(=O)N[C@@H](Cc1ccccc1)[C@@H](O)C[C@H](Cc1ccccc1)NC(=O)[C@H](C(C)C)N1CCCNC1=O (stereo in doubt) ... 13%
CC(C)Cn1cc(NC(=O)NCCN2CCOCC2)c2ccccc2c1=O ... -1.81%
NS(=O)(=O)c1ccc(N2CCC(c3ccco3)CC2)cc1 ... 8.47%
CO[C@H](C)C(=O)Nc1cnccc1C (stereo in doubt) ... 8.97%
Cc1ccncc1NC(=O)CC(O)C1CC1 (stereo not given) ... 1.39%

Query molecule follows.
inhibition in this record for Cc1cc([C@H](C)C(=O)O)cc2[nH]c3ccc(Cl)cc3c12 (stereo in doubt) : 3.37%

Where do these numbers come from? They come from the COVID Moonshot data (paper PMC11187573).
